The origin of these recorded values is patent US20090324593A1.

Biological target: T1, WNV E-protein domain III (dIII) (West Nile Virus, UniProt Q9Q6P4 580-705)
T1 construct: domain: Domain III; also called the antigen; the receptor
T1 sequence (looked up): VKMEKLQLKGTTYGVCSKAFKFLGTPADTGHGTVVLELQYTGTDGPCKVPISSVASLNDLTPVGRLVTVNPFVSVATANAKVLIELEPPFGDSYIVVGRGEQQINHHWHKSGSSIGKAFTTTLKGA
Assay: antigen capture ELISA (sheet title: E9 captured E protein DIII), 2.5 ng/well domain III captured by mouse antibody E9, HRP anti-human IgG F(ab')2 detection
Observable: EC50 (read off the curve)

As a guide, the following entries are already answered.
# Binder, Observable, Result
data = [
    ("Humanized E16 huE16-3.1 (huE16HC T71A / huE16LC) (antibody, V domains shown, also called huE16-3 (T71A)/huE16LC; huE16HC-2 T71A/huE16LC) VH: QVQLVQSGAEVKKPGASVKVSCKASGYTFTDYWIEWVRQAPGQGLEWMGDILCGTGRTRYNEKLKARVTMTADTSTSTAYMELRSLRSDDTAVYYCARSASYGDYADYWGQGTTVTVSS VL: DIVMTQSPDSLAVSLGERATINCKASQDVSTAVAWYQQKPGQPPKLLIYWASTRHTGVPDRFSGSGSGTDFTLTISSLQAEDVAVYYCQQHYTTPLTFGQGTKLEIK", "EC50 (read off the curve)", "~0.01 µg/mL"),
    ("Humanized E16 huE16-2.1 (huE16HC-2 V67A, M69F, T71A / huE16LC) (antibody, V domains shown) VH: QVQLVQSGAEVKKPGASVKVSCKASGYTFTDYWIEWVRQAPGQGLEWMGDILCGTGRTRYNEKLKARATFTADTSTSTAYMELRSLRSDDTAVYYCARSASYGDYADYWGQGTTVTVSS VL: DIVMTQSPDSLAVSLGERATINCKASQDVSTAVAWYQQKPGQPPKLLIYWASTRHTGVPDRFSGSGSGTDFTLTISSLQAEDVAVYYCQQHYTTPLTFGQGTKLEIK", "EC50 (read off the curve)", "~0.01 µg/mL"),
]

With those in mind, consider the next binder.
QUERY: Name the reported EC50 (read off the curve) value associated with the binder Humanized E16 huE16-3.2 (huE16HC T71A / huE16LC-2 Y49S) (antibody, V domains shown, also called hE16-3.2; huE16-2 (T71A)/huE16LC-2 (Y49S)) VH: QVQLVQSGAEVKKPGASVKVSCKASGYTFTDYWIEWVRQAPGQGLEWMGDILCGTGRTRYNEKLKARVTMTADTSTSTAYMELRSLRSDDTAVYYCARSASYGDYADYWGQGTTVTVSS VL: DIVMTQSPDSLAVSLGERATINCKASQDVSTAVAWYQQKPGQPPKLLISWASTRHTGVPDRFSGSGSGTDFTLTISSLQAEDVAVYYCQQHYTTPLTFGQGTKLEIK
RESULT: ~0.01 µg/mL
